# merged literature set: IC50 with 11-beta-hydroxysteroid dehydrogenase type 2 (Homo sapiens, UniProt P80365)
# Sequence (P80365 whole entry): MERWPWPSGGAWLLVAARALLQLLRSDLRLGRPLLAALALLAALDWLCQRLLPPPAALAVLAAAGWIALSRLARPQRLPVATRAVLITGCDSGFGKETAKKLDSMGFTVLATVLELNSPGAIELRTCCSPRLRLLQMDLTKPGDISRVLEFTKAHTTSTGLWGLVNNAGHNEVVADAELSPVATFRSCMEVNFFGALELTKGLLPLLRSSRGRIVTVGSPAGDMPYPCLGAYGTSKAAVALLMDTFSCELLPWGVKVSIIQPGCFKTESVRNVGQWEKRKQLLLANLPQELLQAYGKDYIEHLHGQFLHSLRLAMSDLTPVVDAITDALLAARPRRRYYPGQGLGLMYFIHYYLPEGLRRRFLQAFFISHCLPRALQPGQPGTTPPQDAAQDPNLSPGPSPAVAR

Some solved cases for reference:
The observed IC50 for "CCC1(CC)SC(NC2CCCCCCC2)=NC1=O" when tested with 11-beta-hydroxysteroid dehydrogenase type 2 (Homo sapiens, UniProt P80365) stands at > 10 µM

Test item "Cn1c(-c2ccc(C(=O)O)cc2)nnc1C1(c2ccc(Cl)cc2)CCC1" ; 11-beta-hydroxysteroid dehydrogenase type 2 (Homo sapiens, UniProt P80365); reported IC50 was > 4 µM

# lookup: "C[C@@H]1CN(c2ccc(C(F)(F)F)cn2)C[C@H](C)N1C(=O)c1cc(Cl)c(N)c(Cl)c1" on 11-beta-hydroxysteroid dehydrogenase type 2 (Homo sapiens, UniProt P80365), IC50 = > 10 µM

The observed IC50 for "Cn1c(-c2ccc(NC(=O)c3cnccn3)cc2Cl)nnc1C1(c2ccc(Cl)cc2)CCC1" when tested with 11-beta-hydroxysteroid dehydrogenase type 2 (Homo sapiens, UniProt P80365) stands at > 4 µM

Entry "Cn1c(-c2ccccc2)nnc1C1(c2ccc(Cl)cc2)CCC1" , 11-beta-hydroxysteroid dehydrogenase type 2 (Homo sapiens, UniProt P80365) data, IC50 value: > 4 µM

Record "Oc1cccc(C2(c3nnc4n3CCCCCC4)CCCC2)c1" / 11-beta-hydroxysteroid dehydrogenase type 2 (Homo sapiens, UniProt P80365), IC50 recorded as > 4 µM

For the compound "c1ccc(C2(c3nnc4n3CCCCCC4)CC2)cc1" , the measured IC50 on 11-beta-hydroxysteroid dehydrogenase type 2 (Homo sapiens, UniProt P80365) was > 4 µM

Considering "Cn1c(-c2ccc(-c3ccc(N)nn3)cc2)nnc1C1(c2ccc(Cl)cc2)CCC1" , its IC50 with 11-beta-hydroxysteroid dehydrogenase type 2 (Homo sapiens, UniProt P80365) was recorded as > 4 µM

Case "O=C(N[C@H]1C2CC3CC1C[C@](O)(C3)C2)c1cnc(N[C@H]2CCOC2)nc1C1CCCC1" , 11-beta-hydroxysteroid dehydrogenase type 2 (Homo sapiens, UniProt P80365), IC50 recorded as > 30 µM

Hey, 11-beta-hydroxysteroid dehydrogenase type 2 (Homo sapiens, UniProt P80365) data for "Cn1c(-c2cccc(F)c2)nnc1C1(c2ccc(Cl)cc2)CCC1" : IC50 came out at > 4 µM

Next:
Measured IC50 for this entry "c1ccc(C2(c3nnc4n3CCCCCC4)CCCC2)cc1" on 11-beta-hydroxysteroid dehydrogenase type 2 (Homo sapiens, UniProt P80365): 1.03 µM
